Origin of values: ChEMBL document CHEMBL3217524

test system: L1210; assay: Cytotoxicity against mouse L1210 cells; assay type: functional, cell-based
result_type: IC50 (µM)
Give the number; µM is assumed, so skip it.

Item: `C[C@@](O)(/C=C/[C@@H]1OC(=O)C=C[C@@H]1O)[C@@H](C[C@@H](O)\C=C/C=C\C=C\CO)OP(=O)(O)O` | IC50: 1.8
